tested on: LXFL 529; assay: NCI tumour cell line growth inhibition, 48 h
Activity calls are given as the source filed them. Rule as the data show it: active = GI50 up to about 1.1 µM and inactive = higher.
Reported Property: GI50

Exam item: Entry `C=C(C)[C@@H]1CC[C@]2(C)CC[C@]3(C)[C@H](CC[C@@H]4[C@@]5(C)CC[C@H](O)C(C)(C)[C@@H]5CC[C@]43C)[C@@H]12` needs its GI50 filled in; supply it.
Marked response: > 100 µM (inactive)

Exam item: Give the reported GI50 for this compound. O=C(NC1C=CCC2C(=O)N(c3ccccc3)C(=O)C12)OCc1ccccc1 (stereo not given)
Marked response: > 100 µM (inactive)

Exam item: Note GI50 for the compound shown: `CN(C)P(=O)(/C(N)=N/Nc1ccc([N+](=O)[O-])cc1)N(C)C`
Marked response: > 100 µM (inactive)

Exam item: Provide measured GI50 value, entry: `O=C1C(Cl)=C(NCCOCCO)C(=O)c2c(O)ccc(O)c21`
Marked response: 7.62 µM (inactive)

Exam item: Supply GI50 value. Item: C=CCC(O)c1cc(OC)ccc1OC (stereo not given)
Marked response: > 100 µM (inactive)

###

system: OVCAR-8; experiment: NCI tumour cell line growth inhibition, 48 h
The source made the active and inactive calls. No stated cut-off is given here; in the data, active = GI50 up to about 1.1 µM and inactive = higher.
Reported Property: GI50

Exam item: Indicate the recorded GI50 value for this compound: `COc1cc(C(=O)C/C(CCC(=O)Nc2ccc(Cl)cc2Cl)=N/Nc2nnc(C)n2N)ccc1O`
Marked response: > 100 µM (inactive)

Exam item: Answer with reported GI50 of Cc1cc(-c2ccc(/N=N/c3ccc4c(S(=O)(=O)O)cc(S(=O)(=O)O)c(N)c4c3O)c(C)c2)ccc1/N=N/c1ccc2c(S(=O)(=O)O)cc(S(=O)(=O)O)c(N)c2c1O [EVANS BLUE FREE ACID]
Marked response: > 100 µM (inactive)

Exam item: Supply GI50 value. Item: CC(C)(C)OC(=O)NCCC1SC2C=CC1C2 (centres undefined)
Marked response: > 100 µM (inactive)

Exam item: Please indicate GI50 recorded for COc1ccc(C(=CCC(C)C2CCC3[C@@H]4C(OC(C)=O)CC5CC(OC(C)=O)CC[C@]5(C)C4CC(OC(C)=O)[C@]23C)c2ccc(OC)cc2)cc1 (some centres undefined)
Marked response: > 100 µM (inactive)

Exam item: Report measured GI50; entry is `O=C1C(=CNc2ccccc2Cl)C(=O)N(c2ccccc2)C(=O)N1c1ccccc1`
Marked response: 23.7 µM (inactive)

Exam item: Retrieve GI50 measured for CCOC(=O)C1=C(N2CCCC2)C(=O)C(C(=O)OCC)C1 (centres undefined) and print it.
Marked response: > 100 µM (inactive)

Exam item: Respond only with GI50 recorded for `COc1ccc2nc3cccc([N+](=O)[O-])c3c(NCCC(=O)O)c2c1`
Marked response: > 10 µM (inactive)

Exam item: Entry C[C@]12CC(C#N)C(=O)C(O)=C1CC[C@@H]1C2CC[C@@]2(C)C1CC[C@@H]2O (some centres undefined) needs its GI50 filled in; supply it.
Marked response: > 100 µM (inactive)

Exam item: Look up and state reported GI50 for COc1ccc(N2C(=O)C3CC(c4ccc(C)cc4)c4c([nH]c5ccccc45)C3C2=O)cc1 (centres undefined)
Marked response: 5.43 µM (inactive)

###

test system: HL-60; assay: NCI tumour cell line growth inhibition, 48 h
Calls of active or inactive are those of the source. No stated cut-off is given here; in the data, active = GI50 up to about 1.1 µM and inactive = higher.
Assign a class; possible classes are y for active, n for inactive

Exam item: Test call, this compound: `N#CCOc1ccc(/C=C/C(=O)c2ccc(Cl)cc2)cc1`
Marked response: n

Exam item: // param item: COC(=O)c1ccccc1C1=C([N+](=O)[O-])C(c2cccc(Br)c2)C(C#N)=C(N)O1 (stereo unspecified) ; yields the recorded call
Marked response: n

Exam item: Kindly provide the recorded test outcome for the following compound: `CCc1ccc(Nc2ccc([N+](=O)[O-])cc2[N+](=O)[O-])cc1`
Marked response: n

Exam item: So what was the verdict on `OCCCC(O)(c1ccccc1)c1ccccc1` in this test?
Marked response: n

Exam item: Record request — test call for `CC(=O)NC1=C(N)C(=O)c2ccccc2C1=O`
Marked response: n

Exam item: Test call for this compound, please: CN1CC2=C(OC(N)=C(C#N)C2c2cccs2)/C(=C/c2cccs2)C1 (stereo unspecified)
Marked response: n

Exam item: Could you please tell me the result logged for `O=C1C[C@H](Sc2ccccc2)C2(OCCO2)[C@@H](Sc2ccccc2)C1` in this assay?
Marked response: y

Exam item: Which outcome was entered for the compound O=C(CCN1CCN(c2ccccc2)CC1)N1CCc2c([nH]c3ccccc23)C1c1cccnc1 (stereo unspecified) in this test?
Marked response: n

Exam item: // return assay outcome for `CC(=O)Nc1ccc(NC(=O)CC(=O)Nc2ccc(NC(C)=O)cc2)cc1`
Marked response: n

Exam item: Please share the test call associated with `Clc1ccc(Cc2nc3ccccc3o2)cc1` .
Marked response: n

Exam item: Write down the call the test reported for this compound. Item: CCOC(=O)c1c(N)sc2c1C(C(=O)OCC)CCC2 (stereo unspecified)
Marked response: n

Data origin, for the record: ChEMBL document CHEMBL1201862
